Data credit: the supplement of paper PMC10567573

B1: TAF7L (parent)
chain: PDVENEVKRLLRSDAEAVSTRWEV

variants of: B1; test: protein stability index of a GFP-peptide fusion (GPS, HEK-293T) (PSI 1-6); higher = more stable; details: c terminus: a fixed tail appended;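 further: lentivirally expressed fusions sorted by FACS into six bins by GFP to DsRed ratio, PSI derived from sequencing read proportions per bin multiplied by bin number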
Recorded Endpoint: protein stability index

INSERT INTO measurements (sequence_text, value_reported) VALUES
  ('PDVCNEVKRLLRSDAEAVSTRWEV [E4C]', 2.38);

# return protein stability index for each item in the list
1. PDVENEVKRLLDSDAEAVSTRWEV [R12D]
2. PDVENEPKRLLRSDAEAVSTRWEV [V7P]
3. PDVENEVKRLLRSDAEAMSTRWEV [V18M]
4. PDVENEVMRLLRSDAEAVSTRWEV [K8M]
5. PDVENECKRLLRSDAEAVSTRWEV [V7C]
6. PDVENEVKRLLRSDAKAVSTRWEV [E16K]
7. PDVENEVKRLLRSDAEAVYTRWEV [S19Y]
8. PDVENEVKRLLRIDAEAVSTRWEV [S13I]

Result:
4
4.57
4.78
2.78
3.07
2.65
2.08
3.29

# return protein stability index for each item in the list
1. PDNENEVKRLLRSDAEAVSTRWEV [V3N]
2. PDVEYEVKRLLRSDAEAVSTRWEV [N5Y]
3. PDVENEVKRLLRSDAEAVSTRWKV [E23K]
4. PDVENEVKRLLRNDAEAVSTRWEV [S13N]
5. PDVENEVKRLLRSDAEAVSTRWMV [E23M]
6. PDVENEVKRLLRSSAEAVSTRWEV [D14S]

Result:
[3.09, 3.1, 3.59, 3.53, 2.4, 2.26]

# return protein stability index for each item in the list
1. PDVENRVKRLLRSDAEAVSTRWEV [E6R]
2. PDVENEVKRLLRSDAEAVSTKWEV [R21K]

Result:
3.65
3.76
